Just for reference, patent US9340577B2 is where these values come from.

- system-under-test: HLA-A1 (A*0101) (Homo sapiens, UniProt P04439, A114D/A174V/A182V/D101N/D185E/E176A/E190D/L180R/Q94H/R68K/S129P/T187R/V100A/V91M/W191G)
- protocol-summary: biochemical
- Type: binding
No end group written: not given here.
Class assignment keyed on IC50, ranges range A = under 0.007 µM, range B = from 0.007 µM up to 0.1 µM, range C = 0.1 µM and over

For this sequence, which bin applies? STVPSQKTY [Peptide 9012.0140]
range C

For this sequence, which bin applies? YTDGPGTRY [Peptide 9018.0002]
range A

For this sequence, which bin applies? ITDDSDIAY [Peptide 1580.14]
range A

For this sequence, which bin applies? RQEILDLWVY [Peptide 9015.0174]
range C
